Molecular target: human GLP-1R (Homo sapiens, UniProt P43220)
Construct: host or cells: HEK293
Sequence (P43220 24-463): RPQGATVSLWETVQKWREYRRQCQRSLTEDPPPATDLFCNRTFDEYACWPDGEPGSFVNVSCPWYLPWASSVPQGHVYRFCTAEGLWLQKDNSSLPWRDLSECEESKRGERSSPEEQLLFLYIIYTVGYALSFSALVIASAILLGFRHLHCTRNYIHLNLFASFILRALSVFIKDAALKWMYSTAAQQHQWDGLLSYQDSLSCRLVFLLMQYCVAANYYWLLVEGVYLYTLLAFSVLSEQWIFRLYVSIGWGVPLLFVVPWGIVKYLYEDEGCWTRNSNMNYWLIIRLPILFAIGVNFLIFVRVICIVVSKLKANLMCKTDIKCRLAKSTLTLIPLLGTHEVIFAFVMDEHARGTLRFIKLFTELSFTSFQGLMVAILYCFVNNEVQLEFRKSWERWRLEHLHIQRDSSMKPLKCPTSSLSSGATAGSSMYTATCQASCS
Assay: GLP-1R cAMP assay (Example B1a, HTRF, 30 min at room temperature)
Type: cell-based
Details: cAMP accumulation in HEK293 expressing human GLP-1R, no BETP, 30 min room temperature (Method B1a, compounds ID 1-609), Table 1; read-out: EC50
pEC50: −log10 of the molar value.
testReadout: pEC50

Cc1cc(-n2nc3c(c2-n2ccn(-c4ccc5cnncc5c4)c2=O)[C@@H]2CC[C@H](C3)N2C(=O)c2cc3cc([C@H]4CCOC(C)(C)C4)ccc3n2C2(c3noc(=O)[nH]3)CC2)cc(C)c1F: 5.86
Cc1cc(-n2nc3c(c2-n2ccn(-c4ccc5nn(C(F)F)cc5c4F)c2=O)[C@@H]2CC[C@H](C3)N2C(=O)c2cc3cc([C@H]4CCOC(C)(C)C4)ccc3n2[C@@]2(c3noc(=O)[nH]3)C[C@@H]2C)cc(C)c1F: 6.14

(I) Cc1cc(-n2nc3c(c2-n2ccn(-c4ccc5c(c4)N(C)C(=O)C54CC4)c2=O)[C@@H]2CCC[C@H](C3)N2C(=O)c2cc3cc([C@H]4CCOC(C)(C)C4)ccc3n2[C@@]2(c3noc(=O)[nH]3)C[C@@H]2C)cc(C)c1F
(II) Cc1cc(-n2nc3c(c2-n2ccn(-c4ccc5c(cnn5C)c4F)c2=O)C2CCCC(C3)N2C(=O)c2cc3cc([C@H]4CCOC(C)(C)C4)ccc3n2[C@@]2(c3noc(=O)[nH]3)C[C@@H]2C)cc(C)c1F (some centres unmarked)
Asked: Between I and II , which one shows the larger pEC50 value? Field: selected label. Fill in the label of the entry you choose.
Given back: II
